assayOverview: Ratio of unbound drug level in brain to plasma in cynomolgus monkey treated with risperidone at 0.1 mg/kg, sc by LC-MS/MS analysis
Assay type: ADME, organism-based, Macaca fascicularis
Parameters: dose 0.1 mg/kg, route subcutaneous
assayContext: brain and plasma

molecule: Cc1nc2n(c(=O)c1CCN1CCC(c3noc4cc(F)ccc34)CC1)CCCC2O (stereo unspecified)
Kp uu: 0.19

* * *

assayOverview: AUC(0 to 1 hr) in cynomolgus monkey plasma at 0.1 mg/kg, sc by LC-MS/MS analysis
Assay type: ADME, organism-based, Macaca fascicularis
Design: time < 1 hr, dose 0.1 mg/kg, route subcutaneous
parameterMeasured: AUC(0-t) at 1 h (ng·h/mL)

substanceSmiles: Cc1nc2n(c(=O)c1CCN1CCC(c3noc4cc(F)ccc34)CC1)CCCC2
parameterMeasured: AUC(0-t) at 1 h
value: 27.6

* * *

assayOverview: AUC(0 to 4 hrs) in Beagle dog plasma at 1 mg/kg, sc by LC-MS/MS analysis
Assay type: ADME, organism-based, Canis lupus familiaris
Parameters: time < 4 hr, dose 1 mg/kg, route subcutaneous
parameterMeasured: AUC(0-t) at 4 h (ng·h/mL)

substanceSmiles: CNCc1cc(F)c(Cl)cc1Oc1cccc(OC)c1C
value: 134

* * *

assayOverview: AUC(0 to 1 hr) in cynomolgus monkey cerebrospinal fluid at 0.1 mg/kg, sc by LC-MS/MS analysis
Type: ADME, organism-based, Macaca fascicularis
Parameters: time < 1 hr, dose 0.1 mg/kg, route subcutaneous

compound: Cc1nc2n(c(=O)c1CCN1CCC(c3noc4cc(F)ccc34)CC1)CCCC2 [RISPERIDONE]
unitTag: ng·h/mL
AUC(0-t) at 1 h: 1.14

* * *

assayOverview: Ratio of unbound drug level in brain to plasma in Beagle dog at 0.1 mg/kg, sc by LC-MS/MS analysis
Type: ADME, organism-based, Canis lupus familiaris
Set-up: dose 0.1 mg/kg, route subcutaneous
assayContext: brain and plasma

substanceSmiles: Cc1nc2n(c(=O)c1CCN1CCC(c3noc4cc(F)ccc34)CC1)CCCC2
Kp uu: 0.99

* * *

assayOverview: AUC(0 to 2 hrs) in Beagle dog plasma at 0.1 mg/kg, sc by LC-MS/MS analysis
Type: ADME, organism-based, Canis lupus familiaris
Set-up: time < 2 hr, dose 0.1 mg/kg, route subcutaneous

molecule: Cc1nc2n(c(=O)c1CCN1CCC(c3noc4cc(F)ccc34)CC1)CCCC2 [RISPERIDONE]
unitTag: ng·h/mL
AUC(0-t) at 2 h: 71.2

* * *

assayOverview: Unbound fraction in cynomolgus monkey brain at 0.1 mg/kg, sc by LC-MS/MS analysis
Type: ADME, organism-based, Macaca fascicularis
Parameters: dose 0.1 mg/kg, route subcutaneous
fraction unbound overview

molecule: Cc1nc2n(c(=O)c1CCN1CCC(c3noc4cc(F)ccc34)CC1)CCCC2 [RISPERIDONE]
fraction unbound: 0.0919
//
molecule: CC(C)S(=O)(=O)N[C@H]1CCOC[C@@H]1c1ccc(-c2ccc(C#N)s2)cc1
fraction unbound: 0.0228

* * *

assayOverview: Ratio of unbound drug level in brain to plasma in cynomolgus monkey at 1 mg/kg, sc by LC-MS/MS analysis
Assay type: ADME, organism-based, Macaca fascicularis
Design: dose 1 mg/kg, route subcutaneous
assayContext: brain and plasma

substanceSmiles: CNCc1cc(F)c(Cl)cc1Oc1cccc(OC)c1C
Kp uu: 2.04

* * *

assayOverview: AUC(0 to infinity) in Sprague-Dawley rat plasma at 1 mg/kg, sc by LC-MS/MS analysis
Assay type: ADME, organism-based
Parameters: time infinity, dose 1 mg/kg, route subcutaneous

compound: CC(C)S(=O)(=O)N[C@H]1CCOC[C@@H]1c1ccc(-c2ccc(C#N)s2)cc1
AUC(0-inf) / ng·h/mL: 131
--
compound: Cc1nc2n(c(=O)c1CCN1CCC(c3noc4cc(F)ccc34)CC1)CCCC2 [RISPERIDONE]
AUC(0-inf) / ng·h/mL: 441

* * *

assayOverview: Unbound fraction in cynomolgus monkey plasma treated with risperidone at 0.1 mg/kg, sc by LC-MS/MS analysis
Assay type: ADME, organism-based, Macaca fascicularis
Design: dose 0.1 mg/kg, route subcutaneous
parameterMeasured: fraction unbound

compound: Cc1nc2n(c(=O)c1CCN1CCC(c3noc4cc(F)ccc34)CC1)CCCC2O (stereo unspecified)
value: 0.185

* * *

assayOverview: AUC(0 to infinity) in Sprague-Dawley rat cerebrospinal fluid at 35 mg/kg, sc by LC-MS/MS analysis
Type: ADME, organism-based
Parameters: dose 35 mg/kg, route subcutaneous, time infinity
parameterMeasured: AUC(0-inf) (ng·h/mL)

molecule: C=C[C@H]1C[N@@]2CC[C@H]1C[C@@H]2[C@@H](O)c1ccnc2ccc(OC)cc12 [QUINIDINE]
unitTag: ng·h/mL
value: 304

* * *

assayOverview: AUC(0 to 4 hrs) in Beagle dog brain at 1 mg/kg, sc by LC-MS/MS analysis
Format: ADME, organism-based, Canis lupus familiaris
Set-up: time < 4 hr, dose 1 mg/kg, route subcutaneous

substanceSmiles: CNCc1cc(F)c(Cl)cc1Oc1cccc(OC)c1C
AUC(0-t) at 4 h, ng·h/mL: 2260

* * *

assayOverview: AUC(0 to 1 hr) in cynomolgus monkey brain treated with risperidone at 0.1 mg/kg, sc by LC-MS/MS analysis
Format: ADME, organism-based, Macaca fascicularis
Parameters: time < 1 hr, dose 0.1 mg/kg, route subcutaneous

compound: Cc1nc2n(c(=O)c1CCN1CCC(c3noc4cc(F)ccc34)CC1)CCCC2O (stereo unspecified)
AUC(0-t) at 1 h: 24.8 ng·h/mL

* * *

assayOverview: Ratio of drug level in brain to plasma in Beagle dog treated with risperidone at 0.1 mg/kg, sc by LC-MS/MS analysis
Format: ADME, organism-based, Canis lupus familiaris
Design: dose 0.1 mg/kg, route subcutaneous
assayContext: brain and plasma, read-out: BPR

compound: Cc1nc2n(c(=O)c1CCN1CCC(c3noc4cc(F)ccc34)CC1)CCCC2O (stereo unspecified)
Kp: 0.61

* * *

AUC(0-inf) overview
assayOverview: AUC(0 to infinity) in Sprague-Dawley rat cerebrospinal fluid at 3 mg/kg, sc by LC-MS/MS analysis
Format: ADME, organism-based
Parameters: dose 3 mg/kg, route subcutaneous, time infinity

molecule: Nc1nc(O)c2ncn(COC(CO)CO)c2n1
AUC(0-inf), µg·h/mL: 0.0825

molecule: CCN(CC)CCNC(=O)c1cc(Cl)c(N)cc1OC [METOCLOPRAMIDE]
AUC(0-inf), µg·h/mL: 0.42

molecule: NC(=O)N1c2ccccc2C=Cc2ccccc21 [CARBAMAZEPINE]
AUC(0-inf), µg·h/mL: 0.458

* * *

assayOverview: AUC(0 to infinity) in Sprague-Dawley rat cerebrospinal fluid at 1 mg/kg, sc by LC-MS/MS analysis
Type: ADME, organism-based
Set-up: time infinity, dose 1 mg/kg, route subcutaneous
AUC(0-inf) overview

substanceSmiles: Cc1nc2n(c(=O)c1CCN1CCC(c3noc4cc(F)ccc34)CC1)CCCC2
AUC(0-inf): 11.9 ng·h/mL

substanceSmiles: CC(C)S(=O)(=O)N[C@H]1CCOC[C@@H]1c1ccc(-c2ccc(C#N)s2)cc1
AUC(0-inf): 5.4 ng·h/mL

* * *

assayOverview: Unbound fraction in Beagle dog plasma at 0.5 mg/kg, po by LC-MS/MS analysis
Type: ADME, organism-based, Canis lupus familiaris
Parameters: dose 0.5 mg/kg, route oral

substanceSmiles: CC(C)S(=O)(=O)N[C@H]1CCOC[C@@H]1c1ccc(-c2ccc(C#N)s2)cc1
fraction unbound: 0.0685

* * *

assayOverview: AUC(0 to 2 hrs) in cynomolgus monkey plasma at 1 mg/kg, sc by LC-MS/MS analysis
Type: ADME, organism-based, Macaca fascicularis
Design: time < 2 hr, dose 1 mg/kg, route subcutaneous
parameterMeasured: AUC(0-t) at 2 h (ng·h/mL)

substanceSmiles: CNCc1cc(F)c(Cl)cc1Oc1cccc(OC)c1C
parameterMeasured: AUC(0-t) at 2 h
unitTag: ng·h/mL
value: 150

* * *

assayOverview: AUC(0 to 2 hrs) in Sprague-Dawley rat brain treated with risperidone at 1 mg/kg, sc by LC-MS/MS analysis
Assay type: ADME, organism-based
Parameters: time < 2 hr, dose 1 mg/kg, route subcutaneous
parameterMeasured: AUC(0-t) at 2 h (µg·h/mL)

compound: Cc1nc2n(c(=O)c1CCN1CCC(c3noc4cc(F)ccc34)CC1)CCCC2O (stereo unspecified)
value: 0.0135

* * *

assayOverview: Ratio of drug level in brain to plasma in Sprague-Dawley rat at 3.2 mg/kg, sc by LC-MS/MS analysis
Type: ADME, organism-based
Design: dose 3.2 mg/kg, route subcutaneous
assayContext: read-out: BPR
parameterMeasured: Kp

substanceSmiles: CNCc1cc(F)c(Cl)cc1Oc1cccc(OC)c1C
parameterMeasured: Kp
value: 11.1

* * *

assayOverview: AUC(0 to 2 hrs) in Beagle dog plasma treated with risperidone at 0.1 mg/kg, sc by LC-MS/MS analysis
Type: ADME, organism-based, Canis lupus familiaris
Design: time < 2 hr, dose 0.1 mg/kg, route subcutaneous

compound: Cc1nc2n(c(=O)c1CCN1CCC(c3noc4cc(F)ccc34)CC1)CCCC2O (stereo unspecified) [PALIPERIDONE]
AUC(0-t) at 2 h (ng·h/mL): 77.4
